biological target: UniProt Q586P2; test: Trypanothione synthetase; format: biochemical; conditions: TbTryS IC50

test smiles | IC50
CN(C)CCNC(=O)Cn1nc(-c2cccc(F)c2)c2ccccc21 | 145 nM
CC(C)(C)S(=O)(=O)Cn1nc(-c2cccc(F)c2)c2ccccc21 | 120 nM
O=C(Cn1nc(-c2cccc(F)c2)c2ccccc21)NCc1ccc(Cl)cc1 | > 100000 nM
CC(C)(C)C(=O)Cn1nc(-c2ccc(Cl)cc2)c2ccccc21 | > 100000 nM
CC(C)(C)C(=O)Cn1nc(-c2ccc3ccccc3c2)c2ccccc21 | > 100000 nM

* * *

biological target: TbTryS (Trypanosoma brucei); assay: Trypanothione synthetase; assay type: biochemical; conditions: TbTryS IC50
experimental readout: IC50 (nM)

compound | assayed target | experimental readout | assay value
CC(C)(C)C(=O)Cn1nc(-c2ccccc2)c2ccccc21 [Compound 60] | TbTryS (Trypanosoma brucei) | IC50 | 150
O=C(Cn1nc(C(F)(F)F)c2c1CCCC2)NCc1ccc(Cl)cc1 [Compound 26] | TbTryS (Trypanosoma brucei) | IC50 | 3000
CC(C)(C)C(=O)Cn1nc(-c2cccc(F)c2)c2ccccc21 [Compound 71] | TbTryS (Trypanosoma brucei) | IC50 | 90
CCN(CC)C(=O)Cn1nc(C(F)(F)F)c2c1CCCC2 [Compound 35] | TbTryS (Trypanosoma brucei) | IC50 | 15000
CCN(CC)C(=O)Cn1nc(-c2cccc(F)c2)c2ccccc21 [Compound 87] | TbTryS (Trypanosoma brucei) | IC50 | 200
Fc1cccc(-c2nn(Cc3cccnc3)c3ccccc23)c1 [Compound 76] | TbTryS (Trypanosoma brucei) | IC50 | 4500

* * *

Target: TbTryS (Trypanosoma brucei)
Sequence (Q586P2 1-627): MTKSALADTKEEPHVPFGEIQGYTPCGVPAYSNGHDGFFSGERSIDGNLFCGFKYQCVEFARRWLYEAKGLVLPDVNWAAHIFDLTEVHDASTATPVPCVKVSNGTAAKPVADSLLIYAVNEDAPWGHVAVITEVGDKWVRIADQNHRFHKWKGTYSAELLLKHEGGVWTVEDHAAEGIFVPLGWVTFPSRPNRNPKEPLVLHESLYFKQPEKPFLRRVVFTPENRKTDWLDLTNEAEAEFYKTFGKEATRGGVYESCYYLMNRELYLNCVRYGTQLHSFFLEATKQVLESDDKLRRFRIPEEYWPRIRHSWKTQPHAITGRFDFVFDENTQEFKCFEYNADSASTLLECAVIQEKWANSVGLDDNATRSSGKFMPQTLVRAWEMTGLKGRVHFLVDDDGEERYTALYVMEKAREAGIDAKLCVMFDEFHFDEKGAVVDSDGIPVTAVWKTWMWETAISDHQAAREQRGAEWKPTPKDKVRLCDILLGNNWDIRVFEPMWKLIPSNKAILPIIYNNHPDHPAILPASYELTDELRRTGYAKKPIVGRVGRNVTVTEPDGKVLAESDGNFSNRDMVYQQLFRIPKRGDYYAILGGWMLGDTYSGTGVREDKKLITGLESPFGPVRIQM
Assay: Trypanothione synthetase
Format: biochemical
Conditions: calculated as −0.6×ln(IC50)/(heavy atom count)
Recorded LE (ligand efficiency), one value per entry.

compound | LE (ligand efficiency)
CC(C)(C)C(=O)Cn1nnc(-c2ccccc2)n1 [Compound 14] | 0.39
CN(C)CCCNC(=O)Cn1nc(-c2cccc(F)c2)c2ccccc21 [Compound 84] | 0.39
CC(C)(C)S(=O)(=O)Cc1nn(-c2ccccc2)c2ccccc12 [Compound 72] | 0.40
CC(C)(C)C(=O)Cn1nc(-c2cccc(Cl)c2)c2ccccc21 [Compound 70] | 0.39
CC(C)(C)S(=O)(=O)Cn1nc(-c2cccc(F)c2)c2ccccc21 [Compound 74] | 0.40
CCN(CC)C(=O)Cn1nc(-c2cccc(F)c2)c2ccccc21 [Compound 87] | 0.39
